# assay method text: Pharmacokinetics of 25HC3S in alcoholic hepatitis patients (Phase 2a, IV infusion)
# Assay type: in vivo, human
# condition parameters: human, plasma, iv, 90 mg, Severe AH, cohort 2B, 90 mg IV infusion, N=4

compound	Cmax (ng/mL)
C[C@H](CCCC(C)(C)O)[C@H]1CC[C@H]2[C@@H]3CC=C4C[C@@H](OS(=O)(=O)O)CC[C@]4(C)[C@H]3CC[C@]12C [25HC3S, 5-cholesten-3,25-diol, 3-sulfate]	3290

###

# assay method text: Pharmacokinetics of 25HC3S in healthy subjects (earlier study)
# Type: in vivo, human
# condition parameters: human, plasma; Healthy subjects (N = 5), single dose of 150 mg

molecule	AUC(0-inf)
C[C@H](CCCC(C)(C)O)[C@H]1CC[C@H]2[C@@H]3CC=C4C[C@@H](OS(=O)(=O)O)CC[C@]4(C)[C@H]3CC[C@]12C [25HC3S, 5-cholesten-3,25-diol, 3-sulfate]	6190 ng·h/mL

###

# assay method text: Pharmacokinetics of 25HC3S in alcoholic hepatitis patients (Phase 2a, IV infusion)
# Type: in vivo, human
# condition parameters: human, plasma, iv, 30 mg, Moderate AH, cohort 1A, 30 mg IV infusion, N=3

compound	Cmax
C[C@H](CCCC(C)(C)O)[C@H]1CC[C@H]2[C@@H]3CC=C4C[C@@H](OS(=O)(=O)O)CC[C@]4(C)[C@H]3CC[C@]12C [25HC3S, 5-cholesten-3,25-diol, 3-sulfate]	1280 ng/mL

###

# assay method text: Pharmacokinetics of 25HC3S in healthy subjects (earlier study)
# Assay type: in vivo, human
# condition parameters: human, plasma; Healthy subjects (N = 5), single dose of 150 mg
# From the text: The clearance of 25HC3S sodium was decreased by 80% in AH patients as compared to that in healthy subjects from an earlier study. A comparison of the pharmacokinetic parameters of 25HC3S administered to healthy subjects versus subjects with alcoholic hepatitis is summarized in the following Table. A comparison of the plasma concentration of 25HC3S administered to healthy subjects versus subjects with alcoholic hepatitis is depicted in FIG. 5.

compound	Cmax
C[C@H](CCCC(C)(C)O)[C@H]1CC[C@H]2[C@@H]3CC=C4C[C@@H](OS(=O)(=O)O)CC[C@]4(C)[C@H]3CC[C@]12C [25HC3S, 5-cholesten-3,25-diol, 3-sulfate]	3100 ng/mL

###

# assay method text: Pharmacokinetics of 25HC3S in alcoholic hepatitis patients (Phase 2a, IV infusion)
# Type: in vivo, human
# condition parameters: human, plasma, iv, 150 mg, Severe AH, cohort 3B, 150 mg IV infusion, N=4

compound	measurement units	Tmax
C[C@H](CCCC(C)(C)O)[C@H]1CC[C@H]2[C@@H]3CC=C4C[C@@H](OS(=O)(=O)O)CC[C@]4(C)[C@H]3CC[C@]12C [25HC3S, 5-cholesten-3,25-diol, 3-sulfate]	h	2.1

###

# assay method text: Pharmacokinetics of 25HC3S in alcoholic hepatitis patients (Phase 2a, IV infusion)
# Format: in vivo, human
# condition parameters: human, plasma, iv, 90 mg, Severe AH, cohort 2B, 90 mg IV infusion, N=4; read-out: T½ (converted)

compound	half-life / h
C[C@H](CCCC(C)(C)O)[C@H]1CC[C@H]2[C@@H]3CC=C4C[C@@H](OS(=O)(=O)O)CC[C@]4(C)[C@H]3CC[C@]12C [25HC3S, 5-cholesten-3,25-diol, 3-sulfate]	5.1

###

# assay method text: Pharmacokinetics of 25HC3S in alcoholic hepatitis patients (Phase 2a, IV infusion)
# Type: in vivo, human
# condition parameters: human, plasma, iv, 30 mg, Moderate AH, cohort 1A, 30 mg IV infusion, N=3

molecule	AUC(0-inf), ng·h/mL
C[C@H](CCCC(C)(C)O)[C@H]1CC[C@H]2[C@@H]3CC=C4C[C@@H](OS(=O)(=O)O)CC[C@]4(C)[C@H]3CC[C@]12C [25HC3S, 5-cholesten-3,25-diol, 3-sulfate]	6540

###

# assay method text: Pharmacokinetics of 25HC3S in healthy subjects (earlier study)
# Type: in vivo, human
# condition parameters: human, plasma; Healthy subjects (N = 5), single dose of 150 mg
# Source text: The clearance of 25HC3S sodium was decreased by 80% in AH patients as compared to that in healthy subjects from an earlier study. A comparison of the pharmacokinetic parameters of 25HC3S administered to healthy subjects versus subjects with alcoholic hepatitis is summarized in the following Table. A comparison of the plasma concentration of 25HC3S administered to healthy subjects versus subjects with alcoholic hepatitis is depicted in FIG. 5.
endpoint label: clearance (mL/min)

molecule	endpoint label	measured
C[C@H](CCCC(C)(C)O)[C@H]1CC[C@H]2[C@@H]3CC=C4C[C@@H](OS(=O)(=O)O)CC[C@]4(C)[C@H]3CC[C@]12C [25HC3S, 5-cholesten-3,25-diol, 3-sulfate]	clearance	408

###

# assay method text: Pharmacokinetics of 25HC3S in alcoholic hepatitis patients (Phase 2a, IV infusion)
# Format: in vivo, human
# condition parameters: human, plasma, intravenous, AH patients; read-out: Mean clearance

compound	clearance
C[C@H](CCCC(C)(C)O)[C@H]1CC[C@H]2[C@@H]3CC=C4C[C@@H](OS(=O)(=O)O)CC[C@]4(C)[C@H]3CC[C@]12C [25HC3S, 5-cholesten-3,25-diol, 3-sulfate]	83.3 to 117 mL/min

###

# assay method text: Pharmacokinetics of 25HC3S in alcoholic hepatitis patients (Phase 2a, IV infusion)
# Format: in vivo, human
# condition parameters: human, plasma, iv, 90 mg, Severe AH, cohort 2B, 90 mg IV infusion, N=4

compound	Tmax
C[C@H](CCCC(C)(C)O)[C@H]1CC[C@H]2[C@@H]3CC=C4C[C@@H](OS(=O)(=O)O)CC[C@]4(C)[C@H]3CC[C@]12C [25HC3S, 5-cholesten-3,25-diol, 3-sulfate]	2.3 h

###

# assay method text: Pharmacokinetics of 25HC3S in alcoholic hepatitis patients (Phase 2a, IV infusion)
# Type: in vivo, human
# condition parameters: human, plasma, iv, 30 mg, Moderate AH, cohort 1A, 30 mg IV infusion, N=3; read-out: T½ (converted)
# Description: All patients received IV infused 25HC3S (at 30, 90, or 150 mg) on Day 1 and Day 4 (if still hospitalized), and were followed for 28-days. […] After completing the dosing, a Dose Escalation Committee (DEC) reviewed safety, tolerability and pharmacokinetic (PK) data from all 4 patients and determined that it was safe to move forward to dose 4 severe AH patients (Part B) at the same dose level, 30 mg, as well as escalating the dose level to 90 mg in moderate patients (Part A). […]
endpoint label: half-life (h)

molecule	endpoint label	measurement units	measured
C[C@H](CCCC(C)(C)O)[C@H]1CC[C@H]2[C@@H]3CC=C4C[C@@H](OS(=O)(=O)O)CC[C@]4(C)[C@H]3CC[C@]12C [25HC3S, 5-cholesten-3,25-diol, 3-sulfate]	half-life	h	3.7

###

# assay method text: Pharmacokinetics of 25HC3S in alcoholic hepatitis patients (Phase 2a, IV infusion)
# Format: in vivo, human
# condition parameters: human, plasma, iv, 30 mg, Moderate AH, cohort 1A, 30 mg IV infusion over 2 h, after Dose 1, N=3

molecule	Tmax / h
C[C@H](CCCC(C)(C)O)[C@H]1CC[C@H]2[C@@H]3CC=C4C[C@@H](OS(=O)(=O)O)CC[C@]4(C)[C@H]3CC[C@]12C [25HC3S, 5-cholesten-3,25-diol, 3-sulfate]	2.2

###

# assay method text: Pharmacokinetics of 25HC3S in alcoholic hepatitis patients (Phase 2a, IV infusion)
# Assay type: in vivo, human
# condition parameters: human, plasma, intravenous, AH patients, range over groups; read-out: half-life (t1/2)

compound	half-life
C[C@H](CCCC(C)(C)O)[C@H]1CC[C@H]2[C@@H]3CC=C4C[C@@H](OS(=O)(=O)O)CC[C@]4(C)[C@H]3CC[C@]12C [25HC3S, 5-cholesten-3,25-diol, 3-sulfate]	240 to 360 min

Just for reference, patent US20220378802A1 is where these values come from.
